In this section we review reported inhibition at 1 µM values for a set of compounds.
System: A2780 cells
experimentalProtocol: In vitro proliferation suppression test (CellTiter-Glo)
Assay type: cell-based, human
conditionNotes: Homo sapiens, 72 h, A2780 cell proliferation inhibitory rate at 1 μM test compound, three days
# value in %; strip the unit string

| compoundStructureString | inhibition at 1 µM / % |
| --- | --- |
| COc1ncc(-c2ccc(N(C(=O)NCc3ccccc3)[C@H]3CC[C@H](Nc4ncc(C#N)c(-c5cn[nH]c5C)n4)CC3)nc2)cn1 | 94 |

I would be grateful if you could share the reported inhibition at 1 µM for `Cn1cc(-c2cnc(N(C(=O)OCC(F)F)[C@H]3CC[C@H](Nc4ncc(C(F)(F)F)c(-c5cncc(S(C)(=O)=O)c5)n4)CC3)cn2)cn1` .
99

What do you have for `Cn1cc(-c2ccc(N(C(=O)NCc3ccccc3)[C@H]3CC[C@H](Nc4ncc(C(F)(F)F)c(NC5COC5)n4)CC3)nc2)cn1` ?
97

---

System: A2780 cells
experimentalProtocol: In vitro proliferation suppression test (CellTiter-Glo)
Type: cell-based, human
conditionNotes: Homo sapiens, 72 h, A2780 cell proliferation inhibitory rate at 1 μM test compound, three days
// reported inhibition at 1 µM for each item listed
# number only, unit % dropped from output

| compoundStructureString | readingUnit | inhibition at 1 µM |
| --- | --- | --- |
| Cn1cc(-c2cnc(N(C(=O)OCC(C)(C)O)[C@H]3CC[C@H](Nc4ncc(C(F)(F)F)c(-c5cncc(S(C)(=O)=O)c5)n4)CC3)cn2)cn1 | % | 98 |
| Cn1cc(-c2ccc(N(C(=O)NCc3ccccc3)[C@H]3CC[C@H](Nc4ncc(C#N)c(-c5[nH]ncc5Cl)n4)CC3)nc2)cn1 | % | 91 |
| Cn1cc(-c2cnc(N(C(=O)NCc3ccccc3)[C@H]3CC[C@H](Nc4ncc(C#N)c(NC5COC5)n4)CC3)nc2)cn1 | % | 99 |
| Cn1cc(-c2ccc(N(C(=O)NCc3ccccc3)[C@H]3CC[C@H](Nc4ncc(C#N)c(OC5COC5)n4)CC3)nc2)cn1 | % | 97 |
| COc1ncc(-c2ccc(N(C(=O)NCc3ccccc3)[C@H]3CC[C@H](Nc4ncc(C(F)(F)F)c(OC5COC5)n4)CC3)nc2)cn1 | % | 98 |

Given the molecule `COc1ncc(-c2cnc(N(C(=O)NCC(C)(F)F)[C@H]3CC[C@H](Nc4ncc(C(F)(F)F)c(-c5n[nH]cc5Cl)n4)CC3)cn2)cn1` , what is its reported inhibition at 1 µM?
96

---

measuredTarget: CDK12/CycK complex (Homo sapiens)
Sequence (Q9NYV4 whole entry, species assumed): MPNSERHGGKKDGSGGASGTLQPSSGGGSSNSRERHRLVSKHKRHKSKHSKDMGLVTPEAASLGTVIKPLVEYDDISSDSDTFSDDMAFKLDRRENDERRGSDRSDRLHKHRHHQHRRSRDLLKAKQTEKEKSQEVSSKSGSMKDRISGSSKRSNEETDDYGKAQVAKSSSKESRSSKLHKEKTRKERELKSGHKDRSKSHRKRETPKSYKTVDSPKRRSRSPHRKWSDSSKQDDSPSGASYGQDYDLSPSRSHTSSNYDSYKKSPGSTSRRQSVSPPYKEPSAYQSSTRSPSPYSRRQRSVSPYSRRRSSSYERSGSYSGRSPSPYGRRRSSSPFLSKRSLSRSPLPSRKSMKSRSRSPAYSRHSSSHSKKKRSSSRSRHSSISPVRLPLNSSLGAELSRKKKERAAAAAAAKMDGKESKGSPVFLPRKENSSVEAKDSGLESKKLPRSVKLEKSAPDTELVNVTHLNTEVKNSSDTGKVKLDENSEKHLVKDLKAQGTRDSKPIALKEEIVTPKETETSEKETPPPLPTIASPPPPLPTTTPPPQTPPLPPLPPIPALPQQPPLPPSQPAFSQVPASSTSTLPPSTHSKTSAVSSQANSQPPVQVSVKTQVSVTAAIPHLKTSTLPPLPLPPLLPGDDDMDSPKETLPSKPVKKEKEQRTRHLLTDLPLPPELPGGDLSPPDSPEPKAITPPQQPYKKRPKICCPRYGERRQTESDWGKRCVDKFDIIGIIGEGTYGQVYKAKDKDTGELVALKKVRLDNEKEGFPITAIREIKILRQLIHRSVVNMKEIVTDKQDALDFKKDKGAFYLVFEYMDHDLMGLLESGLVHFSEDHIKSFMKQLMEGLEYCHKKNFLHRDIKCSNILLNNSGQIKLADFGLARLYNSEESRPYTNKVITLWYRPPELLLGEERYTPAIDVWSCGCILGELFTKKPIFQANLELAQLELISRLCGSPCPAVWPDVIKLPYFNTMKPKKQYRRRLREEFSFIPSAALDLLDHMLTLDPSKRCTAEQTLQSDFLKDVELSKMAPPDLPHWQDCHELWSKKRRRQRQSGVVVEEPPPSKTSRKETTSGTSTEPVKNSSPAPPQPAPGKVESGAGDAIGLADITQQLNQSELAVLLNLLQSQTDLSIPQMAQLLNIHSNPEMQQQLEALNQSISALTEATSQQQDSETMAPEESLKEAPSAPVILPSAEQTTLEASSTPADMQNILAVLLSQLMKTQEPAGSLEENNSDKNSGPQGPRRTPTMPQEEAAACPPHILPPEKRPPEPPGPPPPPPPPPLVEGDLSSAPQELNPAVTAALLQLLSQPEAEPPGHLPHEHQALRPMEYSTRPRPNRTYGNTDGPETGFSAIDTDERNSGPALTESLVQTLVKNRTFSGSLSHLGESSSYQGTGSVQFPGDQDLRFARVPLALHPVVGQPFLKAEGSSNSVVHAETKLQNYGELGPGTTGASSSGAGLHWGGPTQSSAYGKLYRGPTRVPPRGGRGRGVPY
Sequence (O75909 whole entry partner, species assumed): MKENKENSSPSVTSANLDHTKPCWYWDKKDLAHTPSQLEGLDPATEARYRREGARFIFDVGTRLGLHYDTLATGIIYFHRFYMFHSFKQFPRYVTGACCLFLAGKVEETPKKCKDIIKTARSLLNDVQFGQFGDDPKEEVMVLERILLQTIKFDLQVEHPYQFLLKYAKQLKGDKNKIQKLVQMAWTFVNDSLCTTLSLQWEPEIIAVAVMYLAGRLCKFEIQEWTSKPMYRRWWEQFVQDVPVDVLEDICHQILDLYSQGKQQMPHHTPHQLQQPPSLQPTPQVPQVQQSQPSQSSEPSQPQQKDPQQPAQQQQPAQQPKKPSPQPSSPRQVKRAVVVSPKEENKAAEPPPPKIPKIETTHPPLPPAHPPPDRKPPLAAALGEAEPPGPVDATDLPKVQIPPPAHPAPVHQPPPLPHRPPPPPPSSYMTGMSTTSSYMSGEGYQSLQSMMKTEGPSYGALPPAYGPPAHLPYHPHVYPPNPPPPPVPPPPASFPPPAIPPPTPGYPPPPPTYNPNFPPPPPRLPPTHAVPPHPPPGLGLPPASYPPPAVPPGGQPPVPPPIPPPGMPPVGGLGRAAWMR
experimentalProtocol: Measurement of CDK12 inhibitory activity by binding assay (TR-FRET, 66 nM BODIPY-FL-labeled AT-7519)
conditionNotes: inhibitory rate against CDK12 at 1 μM test compound, 66 nM BODIPY-FL-labeled AT-7519, 2 nM CDK12/CycK
Listed below: inhibition at 1 µM values for each entry.
Could you give me the number in %? Just the number is fine.

| compound | readingUnit | experimentalResult |
| --- | --- | --- |
| COc1ncc(-c2ccc(N(C(=O)OCc3ccccc3)[C@H]3CC[C@H](Nc4ncc(C(F)(F)F)c(N5CC(F)(CO)C5)n4)CC3)nc2)cn1 [Example 600] | % | 83 |
| COc1ncc(-c2ccc(N(C(=O)OCc3ccccc3)[C@H]3CC[C@H](Nc4ncc(C#N)c(N5CC(F)(CO)C5)n4)CC3)nc2)cn1 [Example 603] | % | 76 |
| Cc1cc(-c2nc(N[C@H]3CC[C@H](N(C(=O)NCc4ccccc4)c4ccc(-c5cnn(C)c5)nn4)CC3)ncc2C#N)[nH]n1 [Example 542] | % | 100 |
| COc1ncc(-c2cnc(N(C(=O)NCc3ccccc3)[C@H]3CC[C@H](Nc4ncc(C#N)c(N5CC(C)(O)C5)n4)CC3)cn2)cn1 [Example 620] | % | 97 |
| Cc1cc(-c2nc(N[C@H]3CC[C@H](N(C(=O)NCc4ccccc4)c4ccc(-c5cnn(C)c5)cn4)CC3)ncc2C#N)[nH]n1 [Example 469] | % | 94 |

Value lookup for inhibition at 1 µM; key = Cn1cc(-c2ccc(N(C(=O)NCc3ccccc3)[C@H]3CC[C@H](Nc4ncc(C#N)c(NC5(C)COC5)n4)CC3)nc2)cn1 [Example 605]
90

Next compound: Cn1cc(-c2ccc(N(C(=O)NCc3ccccc3)[C@H]3CC[C@H](Nc4ncc(C#N)c(-c5[nH]ncc5Cl)n4)CC3)nc2)cn1 [Example 536]
96

Same lookup for COc1ncc(-c2ccc(N(C(=O)OCc3ccccn3)[C@H]3CC[C@H](Nc4ncc(C(F)(F)F)c(N5CC(C)(O)C5)n4)CC3)nc2)cn1 [Example 628] , please.
100

---

inhibition at 1 µM: recorded values
Test system: A2780 cells
experimentalProtocol: In vitro proliferation suppression test (CellTiter-Glo)
Assay type: cell-based, human
conditionNotes: Homo sapiens, 72 h, A2780 cell proliferation inhibitory rate at 1 μM test compound, three days

| molecule | inhibition at 1 µM |
| --- | --- |
| Cc1cc(-c2nc(N[C@H]3CC[C@H](N(C(=O)NCc4ccccc4)c4ccc(-c5cnn(C)c5)cn4)CC3)ncc2C#N)[nH]n1 [Example 469] | 97% |
| COc1ncc(-c2ccc(N(C(=O)NCc3ccccc3)[C@H]3CC[C@H](Nc4ncc(C#N)c(OC5COC5)n4)CC3)nc2)cn1 [Example 609] | 99% |

Find the recorded inhibition at 1 µM belonging to CCNC(=O)N(c1cnc(-c2cnn(C)c2)cn1)[C@H]1CC[C@H](Nc2ncc(C(F)(F)F)c(-c3ccn(C(F)F)n3)n2)CC1 [Example 764] and report it.
95%

And then COc1ncc(-c2cnc(N(C(=O)NCc3ccccc3)[C@H]3CC[C@H](Nc4ncc(C(F)(F)F)c(OC5COC5)n4)CC3)cn2)cn1 [Example 612] , what is it?
97%

Follow-up entry: Cn1cc(-c2ccc(N(C(=O)NCc3ccccc3)[C@H]3CC[C@H](Nc4ncc(C#N)c(NC5(C)COC5)n4)CC3)nc2)cn1 [Example 605]
98%

Lookup COc1ncc(-c2cnc(N(C(=O)NCC(F)F)[C@H]3CC[C@H](Nc4ncc(C(F)(F)F)c(-c5n[nH]cc5Cl)n4)CC3)cn2)cn1 [Example 744]
97%

---

measuredTarget: CDK12/CycK enzyme (Homo sapiens, UniProt Q9NYV4)
experimentalProtocol: Measurement of CDK12/CycK inhibitory activity (ULight-4E-BP1 peptide phosphorylation, LANCE)
Format: biochemical
conditionNotes: inhibitory rate against CDK12/CycK at 1 μM test compound, ATP 10 μM or 500 μM
# maps each entry to its inhibition at 1 µM
Value expressed in %; do not type the unit.

Past entries and their recorded results:
| compound | measuredTarget | experimentalResult |
| --- | --- | --- |
| Cn1cc(-c2ccc(N(C(=O)NCc3ccccc3)[C@H]3CC[C@H](Nc4ncc(C(F)(F)F)c(NC5COC5)n4)CC3)nc2)cn1 [Example 574] | CDK12/CycK enzyme (Homo sapiens, UniProt Q9NYV4) | 99 |
| Cn1cc(-c2cnc(N(C(=O)NCc3ccccc3)[C@H]3CC[C@H](Nc4ncc(C#N)c(NC5COC5)n4)CC3)cn2)cn1 [Example 539] | CDK12/CycK enzyme (Homo sapiens, UniProt Q9NYV4) | 109 |
| COc1ncc(-c2ccc(N(C(=O)NCc3ccccc3)[C@H]3CC[C@H](Nc4ncc(C#N)c(NC5COC5)n4)CC3)nc2)cn1 [Example 553] | CDK12/CycK enzyme (Homo sapiens, UniProt Q9NYV4) | 106 |
| COc1ncc(-c2ccc(N(C(=O)NCc3ccccc3)[C@H]3CC[C@H](Nc4ncc(C(F)(F)F)c(OC5COC5)n4)CC3)nc2)cn1 [Example 588] | CDK12/CycK enzyme (Homo sapiens, UniProt Q9NYV4) | 100 |
| COc1ncc(-c2ccc(N(C(=O)NCc3ccccc3)[C@H]3CC[C@H](Nc4ncc(C(F)(F)F)c(NC5COC5)n4)CC3)nc2)cn1 [Example 589] | CDK12/CycK enzyme (Homo sapiens, UniProt Q9NYV4) | 115 |

# inhibition at 1 µM lookup, item Cn1cc(-c2ccc(N(C(=O)NCc3ccccc3)[C@H]3CC[C@H](Nc4ncc(C#N)c(NC5COC5)n4)CC3)cc2)cn1 [Example 527]
99

Try this compound next: Cn1cc(-c2ccc(N(C(=O)NCc3ccccc3)[C@H]3CC[C@H](Nc4ncc(C(F)(F)F)c(N5CCC6(COC6)C5)n4)CC3)nc2)cn1 [Example 566]
100

Can you handle COc1ncc(-c2ccc(N(C(=O)NCc3ccccc3)[C@H]3CC[C@H](Nc4ncc(C#N)c(-c5cn[nH]c5C)n4)CC3)nc2)cn1 [Example 577] next?
98

---

inhibition at 1 µM values by entry
measuredTarget: CDK12/CycK complex (Homo sapiens)
experimentalProtocol: Measurement of CDK12 inhibitory activity by binding assay (BODIPY-FL labeled AT-7519 high concentration conditions, 1320 nM)
conditionNotes: inhibitory rate against CDK12 at 1 μM test compound, 1320 nM BODIPY-FL-labeled AT-7519, 8 nM CDK12/CycK
Reply with just the number (in %).

Some compounds with known inhibition at 1 µM results, for comparison:
| compoundStructureString | measuredTarget | inhibition at 1 µM, % |
| --- | --- | --- |
| COc1ncc(-c2ccc(N(C(=O)NCC(F)(F)F)[C@H]3CC[C@H](Nc4ncc(C(F)(F)F)c(-c5n[nH]cc5Cl)n4)CC3)nc2)cn1 | CDK12/CycK complex (Homo sapiens) | 92 |
| COc1ncc(-c2cnc(N(C(=O)OCCN(C)C)[C@H]3CC[C@H](Nc4ncc(C(F)(F)F)c(-c5cncc(S(C)(=O)=O)c5)n4)CC3)cn2)cn1 | CDK12/CycK complex (Homo sapiens) | 102 |
| COc1ncc(-c2cnc(N(C(=O)OCC(F)F)[C@H]3CC[C@H](Nc4ncc(C(F)(F)F)c(-c5cncc(S(C)(=O)=O)c5)n4)CC3)cn2)cn1 | CDK12/CycK complex (Homo sapiens) | 96 |
| CCOCC(=O)N(c1cnc(-c2cnn(C)c2)cn1)[C@H]1CC[C@H](Nc2ncc(C(F)(F)F)c(-c3cncc(S(C)(=O)=O)c3)n2)CC1 | CDK12/CycK complex (Homo sapiens) | 107 |
| COc1ncc(-c2ccc(N(C(=O)NCC(C)(C)O)[C@H]3CC[C@H](Nc4ncc(C(F)(F)F)c(-c5ccn(C(F)F)n5)n4)CC3)nc2)cn1 | CDK12/CycK complex (Homo sapiens) | 110 |

Quick one: inhibition at 1 µM of `COc1ncc(-c2cnc(N(C(=O)NCC(F)F)[C@H]3CC[C@H](Nc4ncc(C(F)(F)F)c(-c5n[nH]cc5Cl)n4)CC3)cn2)cn1` ?
92

The origin of these recorded values is patent US11584737B2.
